test: Toxicity liver stage against HepG2, at 10uM; format: cell-based; parameters: test concentration 10 uM, cell line HepG2-A16-CD81EGFP; details: human, HepG2-A16-CD81EGFP cells; read-out: INHIBITION
For each record, write down the corresponding cytotoxicity at 10 µM.
Numeric only. Scale: %

Asked: cytotoxicity at 10 µM for CN1CCN(C(=O)c2cc(-c3ccco3)cs2)CC1 ?
Given back: 1.63

Asked: cytotoxicity at 10 µM for CCCc1nc(C)cc(N2Cc3cnn(CCO)c3C2)n1 ?
Given back: -129

Asked: cytotoxicity at 10 µM for COCC1CN(Cc2ccncc2)Cc2nnn(CC3CC3)c21 (stereo not drawn) ?
Given back: -5.91
